- assayTarget: T1, VEGF121 (human vascular endothelial growth factor) (human, UniProt P15692-9 27-147)
- T1 construct: Immobilised on a CM5 chip by EDC/NHS for SPR and coated on plates for phage ELISA; also called VEGF-Trx cut with thrombin
- T1 sequence (looked up): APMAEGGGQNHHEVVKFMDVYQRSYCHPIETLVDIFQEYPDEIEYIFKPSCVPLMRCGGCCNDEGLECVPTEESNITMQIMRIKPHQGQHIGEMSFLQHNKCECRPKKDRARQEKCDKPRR
- assayProtocol: SPR (BIAcore X), VEGF on CM5 chip, synthetic peptide as analyte
measuredParameter: Kd (nM)
Just the number in nM, nothing appended.

Query HANFFQGSWTWENGKWTWKGWKYNQS [Peptide 1 specific to VEGF (Table 3b), bipodal-peptide binder] yields Kd of 60

The measured Kd associated with ASPFWAGSWTWENGKWTWKGWVPSNA [Peptide 2 specific to VEGF (Table 3b), bipodal-peptide binder] reads 326
